src = the supplement of paper PMC10307832

Test system: NCI-H1755
Assay remarks: relative viability (nuclei count vs DMSO), 5 days (fraction); higher = more cells survive
Protocol conditions: first compound 0.02 µM
Reported relative viability values follow for various molecules
The answer should be a number; do not append a unit.

Some molecules with known relative viability results, for comparison:
* CN1CCN(CCOc2cc(OC3CCOCC3)c3c(Nc4c(Cl)ccc5c4OCO5)ncnc3c2)CC1 [Saracatinib] + O=C(c1cc(Cc2n[nH]c(=O)c3ccccc23)ccc1F)N1CCN(C(=O)C2CC2)CC1 [Olaparib] (partner 8 µM) | 0.876
* CN1CCN(CCOc2cc(OC3CCOCC3)c3c(Nc4c(Cl)ccc5c4OCO5)ncnc3c2)CC1 [Saracatinib] + Nc1nc2[nH]cc(CCc3ccc(C(=O)N[C@@H](CCC(=O)O)C(=O)O)cc3)c2c(=O)[nH]1 [Pemetrexed] (partner 0.2 µM) | 0.465

Consider now this further molecule.
Ask | Value wanted: relative viability (NCI-H1755) of entry CCNC(=O)c1noc(-c2cc(C(C)C)c(O)cc2O)c1-c1ccc(CN2CCOCC2)cc1 [Luminespib] + C[C@]1(O)C[C@@H](c2nc(-c3ccc4ccc(-c5ccccc5)nc4c3)c3c(N)nccn32)C1 [Linsitinib] (partner 1 µM)
Reply | 0.98

###

Tested on: ChaGo-K-1
Assay remarks: relative viability (nuclei count vs DMSO), 5 days (fraction); higher = more cells survive
Protocol conditions: first compound 0.001 µM
Endpoint label: relative viability
Lab note: jot down the number only; don't add units.

• Cc1cn(-c2cc(NC(=O)c3ccc(C)c(Nc4nccc(-c5cccnc5)n4)c3)cc(C(F)(F)F)c2)cn1 [Nilotinib] + Nc1ncn([C@H]2C[C@H](O)[C@@H](CO)O2)c(=O)n1 [Decitabine] (partner 2 µM) = 0.528
• Cc1cn(-c2cc(NC(=O)c3ccc(C)c(Nc4nccc(-c5cccnc5)n4)c3)cc(C(F)(F)F)c2)cn1 [Nilotinib] + O=C(CCCCCCC(=O)Nc1ccccc1)NO [Vorinostat] (partner 1 µM) = 0.654
• Cc1cn(-c2cc(NC(=O)c3ccc(C)c(Nc4nccc(-c5cccnc5)n4)c3)cc(C(F)(F)F)c2)cn1 [Nilotinib] + NC(=O)Nc1cc(-c2cccc(F)c2)sc1C(=O)N[C@H]1CCCNC1 [AZD7762] (partner 0.2 µM) = 0.884
• Cc1cn(-c2cc(NC(=O)c3ccc(C)c(Nc4nccc(-c5cccnc5)n4)c3)cc(C(F)(F)F)c2)cn1 [Nilotinib] + CC(C)C[C@H](NC(=O)[C@H](Cc1ccccc1)NC(=O)c1cnccn1)B(O)O [Bortezomib] (partner 0.002 µM) = 1.44
• Cc1cn(-c2cc(NC(=O)c3ccc(C)c(Nc4nccc(-c5cccnc5)n4)c3)cc(C(F)(F)F)c2)cn1 [Nilotinib] + COc1cc2c(Oc3ccc(NC(=O)C4(C(=O)Nc5ccc(F)cc5)CC4)cc3F)ccnc2cc1OCCCN1CCOCC1 [Foretinib] (partner 0.25 µM) = 0.799

In the following, a different molecule is considered.
Ask | Given the entry Cc1cn(-c2cc(NC(=O)c3ccc(C)c(Nc4nccc(-c5cccnc5)n4)c3)cc(C(F)(F)F)c2)cn1 [Nilotinib] + Cc1nc(Nc2ncc(C(=O)Nc3c(C)cccc3Cl)s2)cc(N2CCN(CCO)CC2)n1 [Dasatinib] (partner 0.075 µM) , what relative viability was observed with ChaGo-K-1?
Reply | 0.521
